This listing pairs molecules with measured Ki.
- Test System: Trypsin (Homo sapiens, UniProt P07477+P07478+P35030)
- Assay Procedure: Inhibition of human pancreas Trypsin using Boc-Gln-Ala-Arg-7-amido-4-methyl coumarin hydrobromide
- Type: protein assay
Report the figure in nM without appending any unit label.

Example entries and their recorded answers appear below.
Record Smiles | Property Measured | Endpoint Unit | Val
N=C(N)c1ccc(COc2cc(OCc3ccc(C(=N)N)cc3)cc(C(=O)N[C@H]3CC[C@H](N)CC3)c2)cc1 | Ki | nM | 1022
N=C(N)c1ccc(Oc2cc(N)cc(Oc3ccc(C(=N)N)cc3)c2)cc1 | Ki | nM | 534
N=C(N)c1ccc(Oc2cc(Oc3ccc(C(=N)N)cc3)cc(C(=O)Nc3ccc(F)cc3)c2)cc1 | Ki | nM | 1636

# evaluate next
State its Ki: "N=C(N)c1ccc(Oc2cc(NC(=O)C3CCN(CCO)CC3)cc(Oc3ccc(C(=N)N)cc3)c2)cc1"
1468

Provenance of the data: ChEMBL document CHEMBL3286254
